TEST_SUMMARY: yeast display, Sf9 membrane polyspecificity reagent, FACS + sequencing; frameworks hold sequencing errors
OBSERVED_PROPERTY: polyreactivity (PSR sort gate)

QVQLVESGGGLVQAGGSLRLSCAASGFTFTINAMGWYRQAPGKERELVAAINWRGGSTYYADSVKGRFTISRDNAKNTVYLQMNSLKPEDTAVYYCNAVASIYSYAYPPYWGREHLNYWGQGTQVTVSS low polyreactivity
QVQLVESGGGLVQAGGSLRLSCAASGITIRYYAMGWYRQAPGKERELVAAITRRGGSTSYADSVKGRFTISRDNAKNTVYLQMNSLKPEDTAVYYCNARKYTNQATYDYWGQGTQVTVSS high polyreactivity
QVQLQESGGGLVQAGGSLRLSCAASGSISSRDAMGWYRQAPGKEREFVATIASGTTTYYADSVKGSFTISRDNAENTLYLQTNSLKPEDTAVYYCAAPTIQIYPFYYWGQGTQVTVSS high polyreactivity
QVQLVESGGGLVQAGGSLRLSCAASGRTFVYYTLGWYRQPPGKERELVARISAGGGITYYADSVKGRFTISRDNAKNTVYLQMNSLNREDTAVYYCAADYWFTYRRPAYEYAYWGQGTQVTVSS high polyreactivity

Next up:
GET /value?item= QVQLVETRGGLLQAGGSLRLSCDASGRTFAYYAMGRYRQAPGKESELVAAITYSDGSTYYADSVKGRFTISRDNAKNTFYLQMNSLKPEDPSVYYCAKGLSREEPENDYDYWGQGTQVTVSS &field=polyreactivity (PSR sort gate) returns low polyreactivity
